- Test system: M. tuberculosis NTB1
- Type: cell-based
Entries annotated with measured NTB1 MIC99

[
  {
    "compound": "Cl.O=c1nc(N2CCCN(CCc3ccccc3)CC2)sc2c([N+](=O)[O-])cc(C(F)(F)F)cc12",
    "censoringOperator": "=",
    "NTB1 MIC99 / mg/L": 27.1
  },
  {
    "compound": "CCCCCCN1CCCN(c2nc(=O)c3cc(C(F)(F)F)cc([N+](=O)[O-])c3s2)CC1.Cl",
    "censoringOperator": ">",
    "NTB1 MIC99 / mg/L": 10
  },
  {
    "compound": "O=c1nc(N2CCN(CC3CCCCC3)CC2)sc2c([N+](=O)[O-])cc(C(F)(F)F)cc12 [PBTZ169, reference compound]",
    "censoringOperator": ">",
    "NTB1 MIC99 / mg/L": 100
  },
  {
    "compound": "CCCCCCCN1CCCN(c2nc(=O)c3cc(C(F)(F)F)cc([N+](=O)[O-])c3s2)CC1.Cl",
    "censoringOperator": "=",
    "NTB1 MIC99 / mg/L": 13.8
  },
  {
    "compound": "Cl.O=c1nc(N2CCCN(CCC3CCCCC3)CC2)sc2c([N+](=O)[O-])cc(C(F)(F)F)cc12",
    "censoringOperator": ">",
    "NTB1 MIC99 / mg/L": 10
  },
  {
    "compound": "Cl.O=c1nc(N2CCCN(C3CCCCC3)CC2)sc2c([N+](=O)[O-])cc(C(F)(F)F)cc12",
    "censoringOperator": "=",
    "NTB1 MIC99 / mg/L": 50.5
  },
  {
    "compound": "CCCCCN1CCCN(c2nc(=O)c3cc(C(F)(F)F)cc([N+](=O)[O-])c3s2)CC1.Cl",
    "censoringOperator": ">",
    "NTB1 MIC99 / mg/L": 10
  }
]
